assayed target: Short transient receptor potential channel 4 (Mus musculus, UniProt Q9QUQ5)
Sequence (Q9QUQ5 whole entry): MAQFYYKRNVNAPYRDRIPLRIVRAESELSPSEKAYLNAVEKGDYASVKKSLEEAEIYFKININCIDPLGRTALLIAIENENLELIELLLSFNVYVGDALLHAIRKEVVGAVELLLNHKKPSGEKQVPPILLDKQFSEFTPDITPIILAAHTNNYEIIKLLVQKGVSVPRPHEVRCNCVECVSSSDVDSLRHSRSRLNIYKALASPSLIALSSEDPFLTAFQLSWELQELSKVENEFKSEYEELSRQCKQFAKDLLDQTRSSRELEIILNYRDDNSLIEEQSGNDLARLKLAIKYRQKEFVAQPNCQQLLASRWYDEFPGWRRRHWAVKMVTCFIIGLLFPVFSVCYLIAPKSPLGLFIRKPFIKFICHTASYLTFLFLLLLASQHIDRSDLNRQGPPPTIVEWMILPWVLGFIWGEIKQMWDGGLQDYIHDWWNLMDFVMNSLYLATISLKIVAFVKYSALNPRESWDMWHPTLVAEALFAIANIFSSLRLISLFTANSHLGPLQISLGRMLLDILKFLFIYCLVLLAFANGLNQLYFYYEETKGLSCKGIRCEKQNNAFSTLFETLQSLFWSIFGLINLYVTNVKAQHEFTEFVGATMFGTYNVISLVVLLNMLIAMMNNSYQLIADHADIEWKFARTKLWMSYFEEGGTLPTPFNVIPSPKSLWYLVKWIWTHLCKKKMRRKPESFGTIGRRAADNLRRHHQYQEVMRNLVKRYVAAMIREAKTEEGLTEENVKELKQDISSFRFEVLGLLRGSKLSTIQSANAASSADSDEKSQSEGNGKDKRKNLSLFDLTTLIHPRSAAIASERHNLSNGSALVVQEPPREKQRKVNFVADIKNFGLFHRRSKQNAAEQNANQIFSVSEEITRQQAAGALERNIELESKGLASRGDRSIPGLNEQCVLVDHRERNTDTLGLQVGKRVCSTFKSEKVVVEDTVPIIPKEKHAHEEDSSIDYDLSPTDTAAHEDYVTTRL
experimental details: calcium entry via TRPC4 opening agents – cell-based, HEK293 TRPC4/mu-opioid, Fluo-4 calcium, dose response (AID 434937)
Format: functional
Active and inactive are the calls of the source. No rule for the calls is given here.
property name: EC50

compound=O=C(O)c1ccc(-c2ccc(/C=c3/sc4nc5ccccc5n4c3=O)o2)cc1Cl assayed_target="Short transient receptor potential channel 4 (Mus musculus, UniProt Q9QUQ5)" observed_result="5.96 µM (active)"
compound=Cc1csc2c(N3CCN(C(=O)Nc4ccc(Cl)c(Cl)c4)CC3)ncnc12 assayed_target="Short transient receptor potential channel 4 (Mus musculus, UniProt Q9QUQ5)" observed_result="1.88 µM (active)"
compound="Cc1ccccc1C(O)(Cc1ccccc1)C1CN2CCC1CC2 (configuration not stated)" assayed_target="Short transient receptor potential channel 4 (Mus musculus, UniProt Q9QUQ5)" observed_result="5.31 µM (active)"
compound=Cc1sc2nc(CSc3ccccc3)nc(NCCN(C)C)c2c1C assayed_target="Short transient receptor potential channel 4 (Mus musculus, UniProt Q9QUQ5)" observed_result="2.99 µM (active)"
compound=COc1ccccc1CCC(=O)Nc1cc(S(=O)(=O)N2CCCCC2)ccc1N1CCN(C)CC1 assayed_target="Short transient receptor potential channel 4 (Mus musculus, UniProt Q9QUQ5)" observed_result="0.944 µM (active)"
compound="CN(CCc1ccccn1)C(=O)CC1C(=O)NCCN1Cc1cccc(F)c1 (configuration not stated)" assayed_target="Short transient receptor potential channel 4 (Mus musculus, UniProt Q9QUQ5)" observed_result="2.37 µM (active)"
compound="Cc1cccc(C)c1OCC(O)CN (configuration not stated)" assayed_target="Short transient receptor potential channel 4 (Mus musculus, UniProt Q9QUQ5)" observed_result="4.22 µM (active)"

Values were extracted from ChEMBL document CHEMBL1201862.
